Assay: Toxicity in C57BL6 mouse xenografted with mouse GL26 cells as assessed as last day of survival at 50 mg/kg, ip for 14 days treatment started at 5 days post-infection (Rvb=14 days)
Format: organism-based
Conditions: in vivo, 336 h, time 14 day
Measured property: Survival (days)
A number alone suffices; assume days.

{"columns": ["Smiles text", "Survival (days)"],
 "data": [
  ["C#CCN(C)CCCOc1ccc(NC(=O)CCCCCCC(=O)NO)cc1Cl", 16],
  ["C#CCN(C)CCCOc1cc(NCc2ccc(C(=O)NO)cc2)ccc1Cl", 18],
  ["C#CCN(C)CCCOc1cc(NC(=O)CCCCCCCCC(=O)NO)ccc1Cl", 16]
]}

Q. Suppose we examine the compound "C#CCN(C)CCCOc1cc(NCc2ccc(/C=C/C(=O)NO)cc2)ccc1Cl" ; what Survival value has been reported?
A. 14
